Test system: E6SM
RUN_DESCRIPTION: Concentration required to reduce herpes simplex virus-1TK (McIntyre) inducted cytopathicity by 50% (E6SM cells)
Format: functional, cell-based
MEASUREMENT_CONTEXT: Homo sapiens
pIC50: −log10 of the molar value.
MEASURED_ENDPOINT: pIC50

See these solved cases before continuing.
compound=O=C(O)CCSCCCOC[C@H]1O[C@@](COCCCSCCC(=O)O)(O[C@H]2O[C@H](COCCCSCCC(=O)O)[C@@H](OCCCSCCC(=O)O)[C@H](OCCCSCCC(=O)O)[C@H]2OCCCSCCC(=O)O)[C@@H](OCCCSCCC(=O)O)[C@@H]1OCCCSCCC(=O)O reported="< 3.63"
compound=O=S(=O)(O)CCSCCCOC[C@H]1O[C@@H](OCCCSCCS(=O)(=O)O)[C@H](OCCCSCCS(=O)(=O)O)[C@@H](OCCCSCCS(=O)(=O)O)[C@@H]1OCCCSCCS(=O)(=O)O reported="< 3.48"
compound=O=S(=O)(O)CCSCCCOC[C@H]1O[C@@](COCCCSCCS(=O)(=O)O)(O[C@H]2O[C@H](COCCCSCCS(=O)(=O)O)[C@@H](OCCCSCCS(=O)(=O)O)[C@H](OCCCSCCS(=O)(=O)O)[C@H]2OCCCSCCS(=O)(=O)O)[C@@H](OCCCSCCS(=O)(=O)O)[C@@H]1OCCCSCCS(=O)(=O)O reported="< 4.00"
compound="O=C(O)CC(SCCCOC[C@H]1O[C@@H](OCCCSC(CC(=O)O)C(=O)O)[C@H](OCCCSC(CC(=O)O)C(=O)O)[C@@H](OCCCSC(CC(=O)O)C(=O)O)[C@@H]1OCCCSC(CC(=O)O)C(=O)O)C(=O)O (stereo not given in full)" reported="< 3.53"

Query O=C(O)CC(SCCCOC[C@H]1O[C@@](COCCCSC(CC(=O)O)C(=O)O)(O[C@H]2O[C@H](COCCCSC(CC(=O)O)C(=O)O)[C@@H](OCCCSC(CC(=O)O)C(=O)O)[C@H](OCCCSC(CC(=O)O)C(=O)O)[C@H]2OCCCSC(CC(=O)O)C(=O)O)[C@@H](OCCCSC(CC(=O)O)C(=O)O)[C@@H]1OCCCSC(CC(=O)O)C(=O)O)C(=O)O (stereo not given in full) yields pIC50 of < 3.74

src = ChEMBL document CHEMBL1130336
